- Tested on: HT29 colon
- procedure text: NCI tumour cell line growth inhibition, 48 h
Would you kindly list TGI for each of these compounds?

Item: COc1cc2c(cc1OC)CN1CCCc3cc(OC)c(OC)cc3C1C2 (stereo not given) | TGI: 61.7 µM

Item: CCCCCCCCCCC/C=C\C[C@H](O)C/C=C1/C(=O)C=C[C@@H]1C/C=C\CCCC(=O)OC | TGI: 2.85 µM

Item: COC(=O)C(C(=O)C(=O)Nc1ccccc1C#N)c1nc2ccc([N+](=O)[O-])cc2[nH]c1=O (stereo not given) | TGI: > 100 µM

Item: Cc1cc2oc(-c3ccccc3)c(C)c(=O)c2c2c1OC(C)(C)S2 | TGI: > 100 µM

Item: c1ccc(-c2nnc(SCc3c[nH]c4ccccc34)n2-c2ccccc2)cc1 | TGI: > 100 µM

----------
- Test system: RPMI-8226 leukemia
- procedure text: NCI tumour cell line growth inhibition, 48 h
Would you kindly list TGI for each of these compounds?

Item: c1cc(CSSCc2ccncc2)ccn1 | TGI: > 65.3 µM

Item: N.N.O=P([O-])([O-])CN(CCN(CP(=O)([O-])[O-])CP(=O)([O-])[O-])CP(=O)([O-])[O-].[Pt+2] | TGI: > 100 µM

Item: c1ccc(CN2CCC3(CC2)SSC2(CCN(Cc4ccccc4)CC2)SS3)cc1 | TGI: > 100 µM

----------
Would you kindly list TGI for each of these molecules?
- Tested on: 786-0 renal
- procedure text: NCI tumour cell line growth inhibition, 48 h

Item: O=C(O)CC1NC(/C(=C/c2ccccc2O)NC(=O)c2ccccc2)OC1=O (stereo not drawn) | TGI: > 100 µM

Item: CC(=O)C=NCC(=O)O | TGI: > 100 µM

Item: CSc1cc(Br)ccc1-n1c(C(=O)c2ccccc2)c(SC)n(-c2ccccc2)c1=O | TGI: > 100 µM

----------
- Tested on: SW-620 colon
- procedure text: NCI tumour cell line growth inhibition, 48 h
Would you kindly list TGI for each of these compounds?

Item: CC(=O)C=NCC(=O)O | TGI: > 100 µM

Item: COc1cc2cc(C(=O)N3CC(CCl)c4c3cc(NCCN)c3ccccc43)[nH]c2c(OC)c1OC (stereo not drawn) | TGI: 0.311 µM

Item: O=C(COc1ccc(OCC(=O)NNC2=NC(c3cc(F)c(Cl)cc3Cl)CS2)c(Cl)c1)NNC1=NC(c2cc(F)c(Cl)cc2Cl)CS1 (stereo not drawn) | TGI: > 100 µM

----------
- System: OVCAR-3 ovarian
- procedure text: NCI tumour cell line growth inhibition, 48 h
Would you kindly list TGI for each of these compounds?

Item: C[N+](C)(CCCCCC[N+](C)(C)CCCN1C(=O)c2cc3ccccc3cc2C1=O)CCCN1C(=O)c2cc3ccccc3cc2C1=O | TGI: > 37.5 µM

Item: CCCCCCCCCCCCCCCC(=O)N[C@H](/C=C/[C@H](O)CCCCCCCCCCCCC)CO | TGI: > 100 µM

Item: O=C(OC[C@H]1C[C@H]2C(=O)CCC[C@H]2O1)c1ccccc1 | TGI: > 100 µM

Item: NC(=O)C(=CNC(=S)Nc1ccc(Cl)c(Cl)c1)C(N)=O | TGI: > 100 µM

Item: c1cc(CSSCc2ccncc2)ccn1 | TGI: > 100 µM

Item: O=C(c1ccco1)c1c(C(F)(F)F)nc2ccc(C(F)(F)F)cc2[n+]1[O-] | TGI: > 75.1 µM
